Kindly supply the reported GI50 values for the records listed here.
- Test system: CAKI-1
- experiment notes: NCI tumour cell line growth inhibition, 48 h
Active and inactive are the calls of the source. No stated cut-off is given here; in the data, active = GI50 up to about 1.1 µM and inactive = higher. Where a SMILES comes first, the peptide text is derived from it. [ ]: non-standard residue; d: D form. The star is where a group is joined. Bn2Val = CC(C)[C@@H](C(=O)*)N(Cc1ccccc1)Cc1ccccc1; NH(3,4-diMeO-benzyl) = COc1ccc(CN*)cc1OC; NMeV = CN[C@H](C(=O)O)C(C)C

[in] I am curious: what GI50 value has been reported for CC1Oc2c(c(=O)oc3ccccc23)[C@@]1(C)CC1C[C@H](C)C(=O)O1 (some centres not stated) ?
[out] 19.1 µM (inactive)

[in] Queued: COc1ccc2c(c1)CN1C(=N2)CSC1c1cc([N+](=O)[O-])ccc1Cl (configuration not stated)
[out] 27.3 µM (inactive)

[in] Request: N#Cc1c(Cl)c2cc([N+](=O)[O-])ccc2n2c1nc1ccccc12
[out] 2.14 µM (inactive)

[in] Same again, this time with Clc1nss/c1=N/c1nonc1-c1ccccc1
[out] 17.1 µM (inactive)

[in] Repeat for the following compound: CO[C@@H]1C[C@H]2[C@@H]3CC[C@H]([C@@H](C)COC(C)=O)[C@@]3(C)CC[C@@H]2[C@@]2(C)CC[C@H]3C[C@]312
[out] 9.12 µM (inactive)

[in] Subsequent entry: CCCCCCCCCC[C@H](O)[C@H]1CC[C@@H]([C@@H](O)CC[C@H](O)[C@@H]2CCC(CCCCCCC[C@@H](O)CC3=C[C@H](C)OC3=O)O2)O1 (some centres not stated)
[out] 3.22 µM (inactive)

[in] Field entry: Nc1nc(N)c2ncn(Cc3c(Cl)cccc3Cl)c2n1
[out] > 100 µM (inactive)

[in] Another compound: C=CCN1C(=O)CS/C1=N\NC(=O)c1c(C)nc2sccn12
[out] > 100 µM (inactive)

[in] Thanks! And CS/C(c1ccccc1)=[N+](\[O-])Cc1ccccc1 ?
[out] > 100 µM (inactive)

[in] Let us now turn to CCOc1ccc(/N=N/c2c(-c3ccccc3)nn(C(=O)CC(=O)Nc3cccc(C)c3)c2-c2ccccc2)cc1
[out] > 100 µM (inactive)

[in] Param item: COc1ccc(CNC(=O)[C@@H]2CCCN2C(=O)[C@@H]2CCCN2C(=O)[C@H](C(C)C)N(C)C(=O)[C@@H](NC(=O)[C@H](C(C)C)N(Cc2ccccc2)Cc2ccccc2)C(C)C)cc1OC (Bn2Val-V[NMeV]PP-{NH(3,4-diMeO-benzyl)})
[out] 15.8 µM (inactive)

[in] For CNC(=O)OC1/C(C)=C\C(C)C(O)C(OC)CC(C)CC2=C(OC)C(=O)C=C(C2=O)N(C)C(=O)/C(C)=C/C=C\C1OC (configuration not stated) then?
[out] 7.4 µM (inactive)

[in] Moving on to the next compound: CCOC(=O)/C(C#N)=N\Nc1ccc(-n2c(C)nc3ccccc3c2=O)cc1
[out] > 100 µM (inactive)

[in] Would you mind doing COC(=O)C(C(=O)C(=O)Nc1ccccc1C#N)c1nc2ccc([N+](=O)[O-])cc2nc1O (configuration not stated) as well?
[out] > 100 µM (inactive)

[in] Query CCC1(Cl)C(=O)NC(=O)N(C2CC(O)C(CO)O2)C1N=[N+]=[N-] (configuration not stated) next
[out] > 100 µM (inactive)

[in] Same question, C=C(CO)[C@H]1CC/C(C)=C/CC/C(C)=C/C/C=C(\C)[C@H](O)C1 this time
[out] 31.3 µM (inactive)

[in] Please give the result for CC(C)n1c2c(c3ccccc3c1=O)C(=O)c1ccccc1-2 too.
[out] > 100 µM (inactive)

Reference source: ChEMBL document CHEMBL1201862
